# protocol.summary: NCI Yeast Anticancer Drug Screen. Data for the rad50 strain (AID 155);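 also: 0% = growth of vehicle-only cultures of the same strain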
# condition.parameters: S. cerevisiae rad50 strain growth inhibition; at 50.0 µM
Compounds without any hit were thinned out: in the full panel of roughly 79,000, 15% have a hit. Calls of active or inactive are those of the source. Rule as the data show it: active = growth inhibition above about 70%; inactive = the rest.
Permitted responses: active, inactive

Could you check what this test reported for FC(F)(F)c1ccc(C2ON=C(c3ccccc3)N2C23CC4CC(CC(C4)C2)C3)cc1 (stereo unspecified) ?
inactive

Could you check what this test reported for COCCC(=O)SCc1ccccc1 ?
inactive

Could you check what this test reported for c1ccc(OCCSCCCCCCCCCCSCCOc2ccccc2)cc1 ?
inactive

Continuing:
Could you check what this test reported for CCC(=O)c1cccc(-c2ccccc2)c1CC ?
inactive

Could you check what this test reported for CCOC(=O)C(C)Sc1ncnc2nc[nH]c12 (stereo unspecified) ?
inactive

====

# Lookup of reported growth inhibition keyed by entry
# protocol.summary: NCI Yeast Anticancer Drug Screen. Data for the bub3 strain (AID 167)
# condition.parameters: S. cerevisiae bub3 mutant strain, at 50.0 µM, stronger effect = higher value
About 79,000 compounds went through this panel and 15% of them were active in at least one assay; those are over-represented in the sample as a whole.
Express your answer in %, writing the number without its unit.

Any idea what its growth inhibition is? The molecule is O=C(O)/C=C/c1ccc(Oc2ccccc2C(=O)O)o1
-1.2

Any idea what its growth inhibition is? The molecule is COc1ccc(/C=C/c2ccc3ccccc3n2)cc1
9.45

Any idea what its growth inhibition is? The molecule is CCN(CC)CCOC(=O)c1ccc(N=Nc2cc(NC(C)=O)ccc2O)cc1
2.35

Any idea what its growth inhibition is? The molecule is CC1(C)O[C@H]2[C@H](O)C[C@](O)(CO)C[C@H]2O1
-9.25

Any idea what its growth inhibition is? The molecule is CC(=O)OCC1OC(n2c3c(c(-c4ccc(Cl)cc4)c(C#N)c2=S)C(=O)CC(C)(C)C3)C(OC(C)=O)C(OC(C)=O)C1OC(C)=O (configuration not stated)
23.4

Continuing:
Any idea what its growth inhibition is? The molecule is CCOC(=O)C1CC(=O)C2/C(=C(\O)c3ccccc3)C=C([N+](=O)[O-])C1C2[N+](=O)[O-] (configuration not stated)
3.6

Any idea what its growth inhibition is? The molecule is COc1cc(OC)c(OC(=O)CCl)c(OC)c1
11.2

Any idea what its growth inhibition is? The molecule is C=C(C)Cc1cc(C(CC)C(CC)c2ccc(O)c(CC(=C)C)c2)ccc1O (configuration not stated)
6.25

Any idea what its growth inhibition is? The molecule is O=[N+]([O-])C(/C=C(\Cl)[N+](=O)[O-])=C1Nc2ccccc2N1
21.1

Any idea what its growth inhibition is? The molecule is Clc1ccc(CSc2cnnc(SCc3ccc(Cl)cc3Cl)c2SCc2ccc(Cl)cc2Cl)c(Cl)c1
-5.15

Any idea what its growth inhibition is? The molecule is COC(=O)N/N=C/c1c[nH]c2ccccc12
-17.4

Any idea what its growth inhibition is? The molecule is Nc1nc(N)c(N=Nc2ccc([N+](=O)[O-])cc2)c(=O)[nH]1
0.7

Any idea what its growth inhibition is? The molecule is CCOC(=O)c1c(-c2ccc(OC)cc2)c(C#N)c(=S)n(C2OC(CO)C(O)C(O)C2O)c1-c1ccccc1 (configuration not stated)
-12.4

Any idea what its growth inhibition is? The molecule is O=C(O)c1ccnc2c(S(=O)(=O)O)cccc12
3.25

Any idea what its growth inhibition is? The molecule is O=C1C(Cl)=C(Nc2ccc([N+](=O)[O-])cc2)C(=O)c2ccccc21
-0.7

Any idea what its growth inhibition is? The molecule is CCC(CCC(=O)c1ccccc1)[N+](=O)[O-] (configuration not stated)
13.8

Any idea what its growth inhibition is? The molecule is O=c1/c(=c2\c(=O)c3cccc4cccc2c43)c2cccc3cccc1c32
-9.05

Any idea what its growth inhibition is? The molecule is CCCCNC(=S)/N=C/c1c(O)cc(C)oc1=O
-14.6

# credit: PubChem BioAssay (NCI)
